Sourced from patent US20220135687A1

# target.or.system: T1, human PD-L1 expressed on CHO-K1 cells (Genscript, Cat #M00543) (human, UniProt Q9NZQ7 19-290)
# T1 construct: also called PD-L1 cell line
# T1 sequence (Q9NZQ7 19-290, one chain of several): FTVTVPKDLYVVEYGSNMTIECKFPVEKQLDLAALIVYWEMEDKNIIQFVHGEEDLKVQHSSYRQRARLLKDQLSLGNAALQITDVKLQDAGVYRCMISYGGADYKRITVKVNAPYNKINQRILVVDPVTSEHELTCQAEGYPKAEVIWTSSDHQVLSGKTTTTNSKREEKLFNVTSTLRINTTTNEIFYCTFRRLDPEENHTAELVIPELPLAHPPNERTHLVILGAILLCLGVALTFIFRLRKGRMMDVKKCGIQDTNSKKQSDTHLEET
# measurement.notes: FACS competition vs biotin-PD-1-Fc on CHO-K1/human PD-L1 cells
Reported values of IC50 for individual entries
measurement.label: IC50 (nM)

binder="29A8H8C7 (antibody, V domains shown, Mouse mAb from hybridoma culture; also called mouse 29A8H8C7) VH: DVQLQGSGPGLVKPSQSLSLTCTVTGYSITSDFAWDWIRQFPGNKLEWMGHIRFSGTTSYNPSLKSRISITRDTSKNQFFLQLNSVTSEDTATYYCARSTLITKGFFDYWGQGTTLTVSS VL: DIVMTQSHKFMSTSVGGRVSITCKASQDVSPAVAWYQQKPGQSPKLLIYWASTRHTGVPDRFTGSGSGTDFTLTISSVQTEDLALYYCQQHYSTPWTFGGGTKLEIK" result_number=1.41
binder="1H1G4D9 (antibody, V domains shown, Mouse mAb from hybridoma culture) VH: EGQLQQSGAELVKPGASVILSCTASGFNIKDTYIHWLNQRPEQGLEWIGRIEPANGNTKYDPTFQGKATITADTSSNTAYLQLTSLTSEDTAVYYCSRGGIYYYGSHWYFDVWGAGTLVTVSS VL: DVLMTQTPLSLPVSLGDQASISCRSSQNIVYSDGDTYLEWYLQKPGQSPKLLIFKVSNRFSGVPDRFSGSGSGTDFTLKISRVEAEDLGVYYCFQGSHVPFTFGSGTKLEIK" result_number=11.8
